Examples of compounds with documented EC50 follow.
testDetails: Inverse agonist activity at GPR55 in human MDA-MB-231 cells assessed as reduction in cell viability incubated for 24 hrs by MTT assay

{"recordSmiles": "O=C1C(Cl)=C(N2CCCC2)C(=O)c2c(O)ccc(O)c21", "EC50": "> 10 µM"}
{"recordSmiles": "O=C1C(Cl)=C(N2CCCCC2)C(=O)c2c(O)ccc(O)c21", "EC50": "1.6 µM"}

Inquiry: Can you share its EC50? I mean this compound: CCCCN(CCCC)C1=C(Cl)C(=O)c2c(O)ccc(O)c2C1=O
Reply text: > 20 µM

Inquiry: Can you share its EC50? I mean this compound: COc1ccc(OC)c2c1C(=O)C(Cl)=C(N1CCCCC1)C2=O
Reply text: > 10 µM

----------
testDetails: Inverse agonist activity at GPR55 in human MDA-MB-231 cells assessed as reduction in cell viability incubated for 24 hrs by MTT assay
measuredQuantity: EC50

# annotated cases, reported EC50 shown
{"recordSmiles": "COc1ccc(OC)c2c1C(=O)C(Cl)=C(N1CCOCC1)C2=O", "reportedMeasurement": "> 10 µM"}
{"recordSmiles": "O=C1C(Cl)=C(N2CCOCC2)C(=O)c2c(O)ccc(O)c21", "reportedMeasurement": "2.7 µM"}
{"recordSmiles": "CCN(CC)C1=C(Cl)C(=O)c2c(O)ccc(O)c2C1=O", "reportedMeasurement": "> 20 µM"}

Inquiry: Can you share its EC50? I mean this compound: COc1ccc(OC)c2c1C(=O)C(Cl)=C(Cl)C2=O
Reply text: > 20 µM
